target: human 5-HT6 receptor (Homo sapiens, UniProt P50406); construct: expressed in transfected cells; host or cells: CHO cells (membrane preparation); experiment: Serotonin 5-HT6 receptor binding assay ([3H]-clozapine); conditions: 100 nM test drug; [3H]-clozapine 2 nM; human 5-HT6 receptor-expressing CHO cell membrane; read-out: BINDING INHIBITION RATE (%) 5HT6 100 nM
Sequence (P50406 whole entry): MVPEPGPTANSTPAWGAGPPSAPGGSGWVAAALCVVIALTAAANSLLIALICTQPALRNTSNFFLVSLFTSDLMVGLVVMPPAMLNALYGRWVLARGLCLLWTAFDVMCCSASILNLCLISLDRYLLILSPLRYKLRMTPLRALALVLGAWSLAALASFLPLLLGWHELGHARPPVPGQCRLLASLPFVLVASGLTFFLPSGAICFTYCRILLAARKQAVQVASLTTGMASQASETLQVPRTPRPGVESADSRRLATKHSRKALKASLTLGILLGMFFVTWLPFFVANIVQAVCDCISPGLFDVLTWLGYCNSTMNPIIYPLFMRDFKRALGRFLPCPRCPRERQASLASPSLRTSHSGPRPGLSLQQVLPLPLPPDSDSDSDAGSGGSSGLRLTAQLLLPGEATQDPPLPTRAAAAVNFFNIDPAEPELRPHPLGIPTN
measure: inhibition at 0.1 µM (%)
Numbers only, in %.

Consider the following illustrative entries.
# compound, inhibition at 0.1 µM [%]
data = [
    ("Cc1ccc2cc(C(=O)N3CCC[C@H]3CCN3CCN(c4nsc5cc(F)ccc45)CC3)[nH]c2c1", 93),
    ("O=C(/C=C/c1ccc2c(c1)OCO2)N1CC[C@H]1CCN1CCC(c2noc3cc(F)ccc23)CC1", 74),
    ("O=C(/C=C/c1ccc2c(c1)OCO2)N1CCC[C@H](CCN2CCC(c3noc4cc(F)ccc34)CC2)C1", 92),
    ("O=C(c1ccc(F)cc1)C1CCN(CC[C@@H]2CCCN2C(=O)c2cc3ccccc3n2C2CCOCC2)CC1", 97),
    ("Cc1ccc2cc(C(=O)N3CCOCCC3CCN3CCC(c4c[nH]c5ccccc45)CC3)[nH]c2c1 (centres unmarked)", 83),
]

Provide the reported inhibition at 0.1 µM of each entry below, same order.
1. COc1ccc2cc(C(=O)N3C[C@H](O)C[C@H]3CCN3CCC(c4c[nH]c5ccccc45)CC3)[nH]c2c1
2. O=C(c1nc2cc(Cl)ccc2[nH]1)N1CCCC[C@H]1CCN1CCC(c2c[nH]c3ccccc23)CC1
3. CCOCCO[C@@H]1C[C@@H](CCN2CCC(c3c[nH]c4ccccc34)CC2)N(C(=O)c2cc3ccc(OC)cc3[nH]2)C1
4. O=C(c1ccc(F)cc1)C1CCN(CC[C@@H]2CCCN2C(=O)c2cc3ccc(F)cc3[nH]2)CC1
5. COc1ccc2[nH]c(C(=O)N3CCCC[C@H]3CCN3CCC(c4coc5cc(F)ccc45)CC3)cc2c1
6. O=C(c1cc2cc(F)ccc2[nH]1)N1CCOC[C@H]1CCN1CCC(c2c[nH]c3ccccc23)CC1
7. O=C(/C=C/c1ccc2c(c1)OCO2)N1CCC[C@@H](CCN2CCN(c3nsc4ccccc34)CC2)C1

1: 79; 2: 98; 3: 78; 4: 96; 5: 65; 6: 97; 7: 65

Provide the reported inhibition at 0.1 µM of each entry below, same order.
1. Cc1cc2c3c(c1)cc(C(=O)N1CCC[C@H]1CCN1CCC(C(=O)c4ccc(F)cc4)CC1)n3CCC2=O
2. COc1c(F)ccc2[nH]c(C(=O)N3CCC[C@H]3CCN3CCC(C(=O)c4ccc(F)cc4)CC3)cc12

[82, 93]

Provide the reported inhibition at 0.1 µM of each entry below, same order.
1. O=C(c1ccc(F)cc1)C1CCN(CC[C@@H]2CCCN2C(=O)c2cc(-c3ccccc3)n[nH]2)CC1
2. Cc1ccc2cc(C(=O)N3CCC[C@H]3CCN3CCC(c4noc5cc(F)ccc45)CC3)[nH]c2c1
3. Cc1ccc2cc(C(=O)N3CCC[C@H]3CCN3CCC(N4CCc5cc(F)ccc54)CC3)[nH]c2c1

1. 95
2. 94
3. 94
